Data origin: ChEMBL document CHEMBL1201861

This section presents compounds with their documented IC50 values.
System: MZ1-PC;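 further: cell viability assay measuring growth inhibition of human MZ1-PC cells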
Experiment: cells
Assay type: functional, cell-based, Homo sapiens
Conditions: Homo sapiens, MZ1-PC
Description: SANGER: Inhibition of human MZ1-PC cell growth in a cell viability assay.

// worked examples, IC50 included
# COMPOUND, TARGET_ENTITY, IC50
records = [
    ("COc1cc(F)c(F)c(Nc2ccc(I)cc2F)c1NS(=O)(=O)C1(CC(O)CO)CC1 (stereo not given)", "MZ1-PC", "1.34 µM"),
    ("CCOc1nc(NC(=O)Cc2cc(OC)ccc2OC)cc(N)c1C#N", "MZ1-PC", "> 10 µM"),
    ("COc1ccc(C2=N[C@@H](c3ccc(Cl)cc3)[C@@H](c3ccc(Cl)cc3)N2C(=O)N2CCNC(=O)C2)c(OC(C)C)c1", "MZ1-PC", "> 8 µM"),
    ("O=C1N=C(NCc2cccs2)S/C1=C\\c1ccc2ncccc2c1", "MZ1-PC", "> 5 µM"),
]

Lab note: next compound to report on.
query: So what IC50 did `CN(C)C/C=C/C(=O)Nc1cc2c(Nc3ccc(F)c(Cl)c3)ncnc2cc1O[C@H]1CCOC1` get with MZ1-PC?
result: > 0.5 µM

###

This section presents compounds with their documented pIC50 values.
System: SK-MEL-1;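 further: growth inhibition of human SK-MEL-1 cells, read out by a cell viability assay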
Assay: cells
Assay type: functional, cell-based
Conditions: Homo sapiens
Description: SANGER: Inhibition of human SK-MEL-1 cell growth in a cell viability assay.
pIC50: −log10 of the molar value.

// worked examples, pIC50 included
# COMPOUND_STRUCTURE_STRING, pIC50
rows = [
    ("Cc1cnc(-c2cnc(NCCNc3ccc(C#N)cn3)nc2-c2ccc(Cl)cc2Cl)[nH]1", "< 5.59"),
    ("CS(=O)(=O)CCNCc1ccc(-c2ccc3ncnc(Nc4ccc(OCc5cccc(F)c5)c(Cl)c4)c3c2)o1", "< 5.70"),
    ("CN(C)C/C=C/C(=O)Nc1cc2c(Nc3ccc(F)c(Cl)c3)ncnc2cc1O[C@H]1CCOC1", "< 6.30"),
]

query: So what pIC50 did `COc1ccc(C2=N[C@@H](c3ccc(Cl)cc3)[C@@H](c3ccc(Cl)cc3)N2C(=O)N2CCNC(=O)C2)c(OC(C)C)c1` get with SK-MEL-1?
result: < 5.10

query: So what pIC50 did `CC(=O)O[C@@]12CO[C@@H]1C[C@H](O)[C@@]1(C)C(=O)[C@H](O)C3=C(C)[C@@H](OC(=O)[C@H](O)[C@@H](NC(=O)OC(C)(C)C)c4ccccc4)C[C@@](O)([C@@H](OC(=O)c4ccccc4)[C@H]21)C3(C)C` get with SK-MEL-1?
result: < 8.00

query: So what pIC50 did `CN(c1ncccc1CNc1nc(Nc2ccc3c(c2)CC(=O)N3)ncc1C(F)(F)F)S(C)(=O)=O` get with SK-MEL-1?
result: < 5.59

###

System: SW1710;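 further: growth inhibition of SW1710 cells, determined with a cell viability assay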
Test: cells
Type: functional, cell-based, Homo sapiens
Conditions: Homo sapiens, SW1710
Description: SANGER: Inhibition of human SW1710 cell growth in a cell viability assay.
This section presents compounds with their documented pIC50 values.
Convention used: pIC50 is expressed as -log10 of the molar concentration.

// worked examples, pIC50 included
# COMPOUND, pIC50
rows = [
    ("COC(=O)CNC(=O)C(=O)OC", 3.56),
    ("C=CCNC1=C2C[C@@H](C)C[C@H](OC)[C@H](O)[C@@H](C)/C=C(\\C)[C@H](OC(N)=O)[C@@H](OC)/C=C\\C=C(/C)C(=O)NC(=CC1=O)C2=O [TANESPIMYCIN]", 6.53),
]

Lab note: next compound to report on.
query: Give its pIC50 value. Item: CCC1=C[C@@H]2CN(C1)Cc1c([nH]c3ccccc13)[C@@](C(=O)OC)(c1cc3c(cc1OC)N(C)[C@H]1[C@@](O)(C(=O)OC)[C@H](OC(C)=O)[C@]4(CC)C=CCN5CC[C@]31[C@@H]54)C2 [VINORELBINE]
result: 8.63

###

Tested on: NCI-H1522;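 further: growth inhibition of NCI-H1522 cells, read out with a cell viability assay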
Experiment: cells
Format: functional, cell-based
Conditions: Homo sapiens
Description: SANGER: Inhibition of human NCI-H1522 cell growth in a cell viability assay.
MEASUREMENT_LABEL: IC50

// worked examples, IC50 included
# COMPOUND, TARGET_ENTITY, IC50
measured = [
    ("CC1=C2C[C@H]3[C@@H](CC=C4C[C@@H](O)CC[C@@]43C)[C@@H]2CC[C@]12O[C@@H]1C[C@H](C)CN[C@H]1[C@H]2C [CYCLOPAMINE]", "NCI-H1522", "> 16 µM"),
    ("CN(c1ncccc1CNc1nc(Nc2ccc3c(c2)CC(=O)N3)ncc1C(F)(F)F)S(C)(=O)=O [PF-00562271]", "NCI-H1522", "> 2.56 µM"),
]

Lab note: next compound to report on.
query: Give its IC50 value. Item: `COC(=O)CNC(=O)C(=O)OC`
result: > 4000 µM

###

Test system: DMS-79
Assay: cells
Type: functional, cell-based
Settings: Homo sapiens
Description: SANGER: Inhibition of human DMS-79 cell growth in a cell viability assay.
pIC50: −log10 of the molar value.
This section presents compounds with their documented pIC50 values.

# COMPOUND, pIC50
measured = [
    ("Cc1cc(Nc2cc(N3CCN(C)CC3)nc(Sc3ccc(NC(=O)C4CC4)cc3)n2)n[nH]1 [TOZASERTIB]", "< 5.70"),
]

query: Give its pIC50 value. Item: Cn1cncc1[C@@](N)(c1ccc(Cl)cc1)c1ccc2c(c1)c(-c1cccc(Cl)c1)cc(=O)n2C [TIPIFARNIB]
result: < 4.80

query: Give its pIC50 value. Item: Cc1cc([C@@H](C)Nc2ccccc2C(=O)O)c2nc(N3CCOCC3)cc(=O)n2c1 [AZD-6482]
result: < 5.29

###

Test system: SAOS-2;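 further: growth inhibition of human Saos-2 cells determined by a cell viability assay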
Assay: cells
Assay type: functional, cell-based, Homo sapiens
Conditions: Homo sapiens, SAOS-2
Description: SANGER: Inhibition of human Saos-2 cell growth in a cell viability assay.
pIC50: −log10 of the molar value.
MEASUREMENT_LABEL: pIC50

# MOLECULE, pIC50
records = [
    ("Cc1cc([C@@H](C)Nc2ccccc2C(=O)O)c2nc(N3CCOCC3)cc(=O)n2c1 [AZD-6482]", "< 5.29"),
]

query: Give its pIC50 value. Item: `O=C1N=C(NCc2cccs2)S/C1=C\c1ccc2ncccc2c1`
result: < 5.30

query: Give its pIC50 value. Item: Cc1ccc(Nc2nccc(N(C)c3ccc4c(C)n(C)nc4c3)n2)cc1S(N)(=O)=O [PAZOPANIB]
result: < 5.10

query: Give its pIC50 value. Item: CN(c1ncccc1CNc1nc(Nc2ccc3c(c2)CC(=O)N3)ncc1C(F)(F)F)S(C)(=O)=O [PF-00562271]
result: < 5.59

query: Give its pIC50 value. Item: O=C(c1cc(Cc2n[nH]c(=O)c3ccccc23)ccc1F)N1CCN(C(=O)C2CC2)CC1 [OLAPARIB]
result: < 5.30

query: Give its pIC50 value. Item: C[C@]1(O)C[C@@H](c2nc(-c3ccc4ccc(-c5ccccc5)nc4c3)c3c(N)nccn32)C1 [LINSITINIB]
result: 6.78

###

Tested on: SR
Assay: cells
Format: functional, cell-based
Details: Homo sapiens
Description: SANGER: Inhibition of human SR cell growth in a cell viability assay.
MEASUREMENT_LABEL: IC50

// worked examples, IC50 included
# COMPOUND, MEAS_VALUE
rows = [
    ("C=C1C(=O)O[C@@H]2C3O[C@]3(C)CC/C=C(\\C)CC[C@@H]12 (stereo partly drawn)", "> 5 µM"),
    ("CS(=O)(=O)CCNCc1ccc(-c2ccc3ncnc(Nc4ccc(OCc5cccc(F)c5)c(Cl)c4)c3c2)o1", "> 2 µM"),
]

Lab note: next compound to report on.
query: Give its IC50 value. Item: `COC(=O)CNC(=O)C(=O)OC`
result: 4.58 µM

###

Test system: FTC-133
Assay: cells
Type: functional, cell-based, Homo sapiens
Settings: ftc-133
MEASUREMENT_LABEL: IC50

query: Give its IC50 value. Item: Cc1cc([C@@H](C)Nc2ccccc2C(=O)O)c2nc(N3CCOCC3)cc(=O)n2c1 [AZD-6482]
result: > 5.12 µM

###

System: ESS-1
Assay: cells
Assay type: functional, cell-based, Homo sapiens
Conditions: Homo sapiens, ESS-1
Description: SANGER: Inhibition of human ESS-1 cell growth in a cell viability assay.
MEASUREMENT_LABEL: pIC50
Convention used: pIC50 is expressed as -log10 of the molar concentration.

# COMPOUND_STRUCTURE_STRING, pIC50
data = [
    ("COC(=O)CNC(=O)C(=O)OC", 3.70),
]

query: Give its pIC50 value. Item: `C=CCNC1=C2C[C@@H](C)C[C@H](OC)[C@H](O)[C@@H](C)/C=C(\C)[C@H](OC(N)=O)[C@@H](OC)/C=C\C=C(/C)C(=O)NC(=CC1=O)C2=O`
result: 6.61

###

Test system: SF-126
Assay: cells
Assay type: functional, cell-based, Homo sapiens
Conditions: Homo sapiens, SF-126
Description: SANGER: Inhibition of human SF126 cell growth in a cell viability assay.
This section presents molecules with their documented pIC50 values.
Convention used: pIC50 is expressed as -log10 of the molar concentration.

// worked examples, pIC50 included
# MOLECULE, MEAS_VALUE
rows = [
    ("Cn1cncc1[C@@](N)(c1ccc(Cl)cc1)c1ccc2c(c1)c(-c1cccc(Cl)c1)cc(=O)n2C [TIPIFARNIB]", 5.41),
    ("CCC(=O)N1CCN(c2ccc(-n3c(=O)ccc4cnc5ccc(-c6cnc7ccccc7c6)cc5c43)cc2C(F)(F)F)CC1 [TORIN1]", 7.36),
    ("Cc1cc(Nc2cc(N3CCN(C)CC3)nc(Sc3ccc(NC(=O)C4CC4)cc3)n2)n[nH]1 [TOZASERTIB]", 6.02),
]

query: Give its pIC50 value. Item: `COC(=O)CNC(=O)C(=O)OC`
result: 3.66

query: Give its pIC50 value. Item: COc1ccc(-c2ccc3c(N4CCOC[C@@H]4C)nc(N4CCOC[C@@H]4C)nc3n2)cc1CO [AZD-8055]
result: 6.05
